Biological target: JR-FL gp120 ΔV3 (HIV-1 (isolate JR-FL))
Assay: ELISA on coated gp120; EC50 by nonlinear regression
Recorded Endpoint: EC50 (µg/mL)
Give just the numeric value; µg/mL need not be written.

EC50 lookup needed for PGT-136 (antibody, V domains shown) VH: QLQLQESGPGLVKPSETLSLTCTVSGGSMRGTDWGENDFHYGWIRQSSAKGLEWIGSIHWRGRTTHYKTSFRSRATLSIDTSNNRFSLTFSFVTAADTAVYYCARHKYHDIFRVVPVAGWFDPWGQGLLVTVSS VL: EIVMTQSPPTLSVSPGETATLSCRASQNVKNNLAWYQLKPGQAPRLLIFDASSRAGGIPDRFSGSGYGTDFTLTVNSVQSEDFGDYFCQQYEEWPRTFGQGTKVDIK , thanks.
0.1

All values here come from patent US20200024330A1.
